test.target: Mushroom tyrosinase (Agaricus bisporus, UniProt O42713+Q00024+C7FF04+C7FF05)
protocol: Inhibition of mushroom Tyrosinase
Assay type: protein assay
quantity.name: IC50 (µM)
Provide only the numeric value, understood in µM.

Q: What value of IC50 has been recorded for this entry: COc1cccc2c1c(C(C)=O)cn2Cc1ccc(F)cc1
Result: 224

Q: State the recorded IC50 for this entry: S=C(N/N=C/c1ccc[nH]1)Nc1ccccc1
Result: 94.23

Q: Recorded IC50 of NC(=S)N/N=C/c1ccc[nH]1 , please.
Result: 3.99

Q: For the molecule CNC(=S)N/N=C/c1ccc[nH]1 , what IC50 is on record?
Result: 344.83

Q: Item O=C(N/N=C/c1ccc(O)cc1)c1cc2ccccc2[nH]1 has what recorded IC50?
Result: 0.07

Q: // returns reported IC50 for input COc1cccc2c1c(C(=O)C(=O)Nc1cc[nH]n1)cn2Cc1ccc(F)cc1
Result: 372

----------
Test system: DU-145
protocol: Cytotoxicity against human DU-145 cells assessed as reduction in cell growth by MTT assay
Assay type: functional, cell-based
quantity.name: IC50 (nM)
Write the number in nM without appending the unit.

Q: Which IC50 value is on record for O=C(NCc1ccccc1)C(CNC(=O)C1C(C(=O)O)[C@@H]2CC[C@H]1O2)Cc1ccc[nH]1 (stereo partly specified) ?
Result: 17

----------
Test system: MCF7
protocol: Cytotoxicity against human MCF7 cells assessed as reduction in cell growth incubated for 24 hrs by MTT assay
Format: functional, cell-based
particulars: MCF7, 24 h
quantity.name: pIC50
For clarity, pIC50 is expressed as the negative log10 of concentration in mol/L.

Cc1ccc(NC(=S)NNC(=O)c2cc3c([nH]c4ccccc43)c(-c3cccc(O)c3)n2)cc1: 5.18
CSc1nnc(-c2cc3c([nH]c4ccccc43)c(-c3cccc(O)c3)n2)o1: 5.19
O=C(NNC(=S)Nc1ccc(Br)cc1)c1cc2c([nH]c3ccccc32)c(-c2cccc(O)c2)n1: 5.44

Q: For CCNC(=S)NNC(=O)c1cc2c([nH]c3ccccc32)c(-c2cccc(O)c2)n1 , what is its reported pIC50?
Result: 5.14

----------
test.target: Hepatocyte growth factor receptor (Homo sapiens, UniProt P08581)
Sequence (P08581 whole entry): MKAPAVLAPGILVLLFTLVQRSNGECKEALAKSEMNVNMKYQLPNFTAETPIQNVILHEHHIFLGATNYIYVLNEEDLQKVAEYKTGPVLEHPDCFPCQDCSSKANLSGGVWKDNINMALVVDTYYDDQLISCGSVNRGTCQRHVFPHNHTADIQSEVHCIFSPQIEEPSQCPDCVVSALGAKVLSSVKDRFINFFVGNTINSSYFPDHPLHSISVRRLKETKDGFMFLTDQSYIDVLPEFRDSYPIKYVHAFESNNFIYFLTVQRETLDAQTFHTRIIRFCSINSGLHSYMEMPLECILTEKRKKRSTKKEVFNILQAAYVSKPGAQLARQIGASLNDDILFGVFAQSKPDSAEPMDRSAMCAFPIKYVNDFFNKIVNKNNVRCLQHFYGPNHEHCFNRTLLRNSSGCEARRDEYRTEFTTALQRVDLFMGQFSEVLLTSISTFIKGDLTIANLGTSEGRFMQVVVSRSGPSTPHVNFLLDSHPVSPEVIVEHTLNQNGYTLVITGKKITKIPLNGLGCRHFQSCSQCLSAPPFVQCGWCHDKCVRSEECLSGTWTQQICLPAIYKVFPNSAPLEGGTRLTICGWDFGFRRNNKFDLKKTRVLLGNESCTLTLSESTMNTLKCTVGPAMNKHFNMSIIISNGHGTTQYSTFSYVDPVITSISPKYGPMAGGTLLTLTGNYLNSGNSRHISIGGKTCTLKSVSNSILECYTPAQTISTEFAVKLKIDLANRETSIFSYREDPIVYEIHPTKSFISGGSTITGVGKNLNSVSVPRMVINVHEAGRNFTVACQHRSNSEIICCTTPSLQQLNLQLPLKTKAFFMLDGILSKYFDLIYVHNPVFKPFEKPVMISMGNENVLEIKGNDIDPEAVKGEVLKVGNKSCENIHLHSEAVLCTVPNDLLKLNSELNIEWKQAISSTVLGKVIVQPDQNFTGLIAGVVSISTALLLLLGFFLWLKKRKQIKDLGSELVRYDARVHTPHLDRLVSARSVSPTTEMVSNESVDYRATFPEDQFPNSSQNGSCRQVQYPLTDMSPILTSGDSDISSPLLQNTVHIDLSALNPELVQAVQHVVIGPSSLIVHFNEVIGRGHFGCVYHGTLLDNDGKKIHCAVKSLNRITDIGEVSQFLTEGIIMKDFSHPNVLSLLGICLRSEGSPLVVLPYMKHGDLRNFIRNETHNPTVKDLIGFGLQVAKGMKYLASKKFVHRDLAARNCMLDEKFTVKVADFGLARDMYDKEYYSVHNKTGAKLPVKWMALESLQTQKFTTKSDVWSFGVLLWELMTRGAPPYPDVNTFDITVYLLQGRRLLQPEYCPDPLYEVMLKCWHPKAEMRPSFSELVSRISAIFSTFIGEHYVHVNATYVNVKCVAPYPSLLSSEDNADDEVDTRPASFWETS
protocol: Inhibition of c-Met (unknown origin) by mobility shift assay
quantity.name: pIC50
Kindly note that pIC50 refers to -log10 of the concentration in mol/L and answer with the value alone.

Q: pIC50 for Cc1c(C(=O)Nc2ccc(Oc3ncnc4[nH]ccc34)c(F)c2)nnn1-c1ccc(F)cc1 ?
Result: 6.10

----------
System: MDA-MB-231
protocol: Cytotoxicity against human MDA-MB-231 cells assessed as reduction in cell viability by MTT assay
Format: functional, cell-based
quantity.name: IC50 (µM)
Return type: number; implicit unit µM.

Q: Item Cc1c(C(=O)C(=O)Nc2ccncc2)cc(-c2ccccc2)n1-c1ccc(F)cc1 with MDA-MB-231 - IC50?
Result: 11.8

----------
Tested on: MCF-12A
protocol: Cytotoxicity against human MCF-12A cells assessed as reduction in cell viability incubated for 24 hrs by MTT assay
Assay type: functional, cell-based
quantity.name: IC50
Kindly write the number and append the unit.

O=C(NNC(=S)Nc1ccc(Br)cc1)c1cc2c([nH]c3ccccc32)c(-c2cccc(O)c2)n1: 30.2 µM
Cc1ccc(NC(=S)NNC(=O)c2cc3c([nH]c4ccccc43)c(-c3cccc(O)c3)n2)cc1: 16 µM
CSc1nnc(-c2cc3c([nH]c4ccccc43)c(-c3cccc(O)c3)n2)o1: 38.2 µM

Q: Which IC50 reading was recorded for the compound CCNC(=S)NNC(=O)c1cc2c([nH]c3ccccc32)c(-c2cccc(O)c2)n1 ?
Result: 28.4 µM

----------
test.target: Hepatocyte growth factor receptor (Homo sapiens, UniProt P08581)
protocol: Inhibition of human c-Met
quantity.name: pIC50
# log scale: pIC50 equals minus log10 of the concentration in mol/L

Q: State the recorded pIC50 for this entry: CNC(=O)c1ccc(-c2ccc3ncc(S(=O)(=O)n4ccc5ccccc54)n3c2)cc1F
Result: 7.89

----------
System: MCF7
protocol: Cytotoxicity against human MCF7 cells assessed as reduction in cell growth incubated for 72 hrs by MTT assay
Assay type: functional, cell-based
particulars: MCF7, 72 h
quantity.name: pIC50
Conceptually, pIC50 converts a concentration in mol/L into minus its log10.

Q: Given the entry Cc1c(C(=O)Nc2ccc(Oc3ncnc4[nH]ccc34)c(F)c2)nnn1-c1ccc(F)cc1 , report its measured pIC50.
Result: 5.54

----------
System: K562
protocol: Antiproliferative activity against human K562 cells assessed as reduction in cell growth incubated for 48 hrs by WST-8 assay
Format: functional, cell-based
particulars: K562, 48 h
quantity.name: pIC50
Units for pIC50: none; it is -log10 of a concentration expressed in mol/L.

Q: I am curious: what pIC50 value has been reported for Cc1cc(C)c(CNC(=O)c2c(C)n(Cc3ccccc3)c3ccc(OCCN4CCCCC4)cc23)c(=O)[nH]1 ?
Result: 4.28

----------
test.target: Lysine-specific histone demethylase 1A (Homo sapiens, UniProt O60341)
quantity.name: IC50 (nM)
Please give a number only; it is taken to be in nM.

Q: Give recorded IC50 with Lysine-specific histone demethylase 1A (Homo sapiens, UniProt O60341) for the following compound: CCOCc1cccc(NC(=O)c2cc3sccc3n2C)c1CCOc1ccc(OC[C@@H]2CCNC2)cc1
Result: 7.8

----------
System: A549
protocol: Anticancer activity against human A549 cells assessed as inhibition of cell growth
Format: functional, cell-based
quantity.name: pIC50
Reminder that pIC50 is minus the log10 of a molar concentration.

Q: What measured pIC50 is associated with CC(=O)n1cc(C(=O)OC(C)C)c(C#Cc2ccc(Cl)cc2)c1C(=O)OC(C)C on A549?
Result: 5.46

----------
test.target: Poly [ADP-ribose] polymerase 2 (Homo sapiens, UniProt Q9UGN5)
Sequence (Q9UGN5 whole entry): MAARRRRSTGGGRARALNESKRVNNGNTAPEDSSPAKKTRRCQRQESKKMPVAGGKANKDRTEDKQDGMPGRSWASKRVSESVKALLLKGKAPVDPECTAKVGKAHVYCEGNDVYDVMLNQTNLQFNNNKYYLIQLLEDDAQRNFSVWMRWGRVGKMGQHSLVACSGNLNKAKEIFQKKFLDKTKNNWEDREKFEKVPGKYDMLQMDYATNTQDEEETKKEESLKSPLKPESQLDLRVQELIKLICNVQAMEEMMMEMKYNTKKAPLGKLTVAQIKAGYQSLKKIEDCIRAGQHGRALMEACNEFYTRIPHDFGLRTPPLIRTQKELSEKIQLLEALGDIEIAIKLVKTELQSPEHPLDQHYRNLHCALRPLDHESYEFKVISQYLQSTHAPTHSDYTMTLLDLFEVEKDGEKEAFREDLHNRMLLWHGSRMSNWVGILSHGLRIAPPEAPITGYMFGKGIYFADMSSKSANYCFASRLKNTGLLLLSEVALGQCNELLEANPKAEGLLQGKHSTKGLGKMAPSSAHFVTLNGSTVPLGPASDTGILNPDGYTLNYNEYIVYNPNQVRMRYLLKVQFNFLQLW
protocol: Inhibition of PARP-2 (unknown origin)
quantity.name: pIC50
Note: pIC50 values are expressed as the negative base-10 logarithm of concentration in M.

Q: Query: pIC50; subject: CC(C)NCc1ccc(-c2[nH]c3cccc4c3c2C=NNC4=O)cc1
Result: 8.05

----------
Tested on: A549
protocol: Antiproliferative activity against human A549 cells transfected with sh-EZH2 vector assessed as reduction in cell growth incubated for 48 hrs by MTT assay
Assay type: functional, cell-based
particulars: A549, 48 h
quantity.name: pIC50
When answering, recall that pIC50 equals minus log10 of the concentration in mol/L, and write that number alone.

Q: Enter reported pIC50 observed with A549 for Cc1cc(C)c(CNC(=O)c2c(C)cn(Cc3ccc(CC(F)(F)F)cc3)c2C)c(=O)[nH]1
Result: 3.57

----------
System: T47D
protocol: Cytotoxicity against human T47D cells assessed as reduction in cell viability by MTT assay
Assay type: functional, cell-based
quantity.name: IC50 (µM)
Give the value, in units of µM, as a plain number.

Q: GET /values?readout=IC50&system=T47D&item= Cc1c(C(=O)C(=O)Nc2ccncc2)cc(-c2ccccc2)n1-c1ccccc1
Result: 11.8

----------
test.target: Kinesin-like protein KIF11 (Homo sapiens, UniProt P52732)
Sequence (P52732 whole entry): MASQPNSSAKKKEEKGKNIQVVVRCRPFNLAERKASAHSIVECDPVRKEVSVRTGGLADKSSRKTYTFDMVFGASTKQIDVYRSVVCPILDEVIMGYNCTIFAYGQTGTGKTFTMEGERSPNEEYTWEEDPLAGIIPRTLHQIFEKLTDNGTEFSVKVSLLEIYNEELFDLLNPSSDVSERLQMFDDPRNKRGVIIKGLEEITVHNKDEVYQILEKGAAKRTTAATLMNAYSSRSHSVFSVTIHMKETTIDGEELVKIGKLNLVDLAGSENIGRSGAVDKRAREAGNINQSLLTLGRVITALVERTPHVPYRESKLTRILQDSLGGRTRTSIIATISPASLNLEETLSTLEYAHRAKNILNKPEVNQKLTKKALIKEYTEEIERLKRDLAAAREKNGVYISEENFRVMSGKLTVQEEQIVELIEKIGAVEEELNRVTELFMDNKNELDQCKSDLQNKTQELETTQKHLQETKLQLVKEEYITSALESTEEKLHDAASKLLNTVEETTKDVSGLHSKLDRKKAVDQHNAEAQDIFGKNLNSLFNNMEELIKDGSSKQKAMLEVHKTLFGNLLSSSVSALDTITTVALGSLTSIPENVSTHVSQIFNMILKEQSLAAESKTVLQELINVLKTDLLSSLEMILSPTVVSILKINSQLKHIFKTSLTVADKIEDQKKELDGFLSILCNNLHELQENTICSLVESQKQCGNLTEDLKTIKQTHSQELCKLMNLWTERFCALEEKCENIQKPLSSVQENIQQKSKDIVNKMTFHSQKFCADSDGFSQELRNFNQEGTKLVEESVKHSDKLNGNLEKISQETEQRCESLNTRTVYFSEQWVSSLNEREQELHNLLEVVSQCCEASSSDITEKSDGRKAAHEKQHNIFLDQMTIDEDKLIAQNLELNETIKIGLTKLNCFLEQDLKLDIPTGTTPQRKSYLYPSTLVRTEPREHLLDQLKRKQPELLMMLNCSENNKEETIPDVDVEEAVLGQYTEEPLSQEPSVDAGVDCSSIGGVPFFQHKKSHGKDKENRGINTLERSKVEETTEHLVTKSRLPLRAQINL
quantity.name: IC50 (µM)
Give the number; µM is assumed, so skip it.

Cc1ccc(NC(=S)NNC(=O)c2cc3c([nH]c4ccccc43)c(-c3cccc(O)c3)n2)cc1: 18.8

Next molecule, IC50 to be filled in.
Q: Query the reported IC50 for Kinesin-like protein KIF11 (Homo sapiens, UniProt P52732); item: CCNC(=S)NNC(=O)c1cc2c([nH]c3ccccc32)c(-c2cccc(O)c2)n1
Result: 32.3

Value source: ChEMBL document CHEMBL5523717
